Assay: clinical
Details: human, in vivo
Description: Fraction absorbed in human
Here, each record is paired with measured Fa data.

compound	Fa [%]
CC(C)(C)NC(=O)[C@@H]1C[C@@H]2CCCC[C@@H]2CN1C[C@@H](O)[C@H](Cc1ccccc1)NC(=O)[C@H](CC(N)=O)NC(=O)c1ccc2ccccc2n1	4
O=c1[nH]c2ccccc2n1CCCN1CCC(n2c(=O)[nH]c3cc(Cl)ccc32)CC1 [DOMPERIDONE]	93
COc1cc([C@@H]2c3cc4c(cc3[C@@H](O[C@@H]3O[C@@H]5CO[C@@H](C)O[C@H]5[C@H](O)[C@H]3O)[C@H]3COC(=O)[C@H]23)OCO4)cc(OC)c1O [ETOPOSIDE]	25
CCC1=C[C@@H]2CN(C1)Cc1c([nH]c3ccccc13)[C@@](C(=O)OC)(c1cc3c(cc1OC)N(C)[C@H]1[C@@](O)(C(=O)OC)[C@H](OC(C)=O)[C@]4(CC)C=CCN5CC[C@]31[C@@H]54)C2 [VINORELBINE]	45
COc1cc2c(c(OC)c1OC)-c1ccc(OC)c(=O)cc1[C@@H](NC(C)=O)CC2 [COLCHICINE]	44
OCCN(CCO)c1nc(N2CCCCC2)c2nc(N(CCO)CCO)nc(N3CCCCC3)c2n1 [DIPYRIDAMOLE]	66
